Where do the numbers come from? From ChEMBL document CHEMBL4513216.

// reported cytotoxicity at 10 µM for each item listed
assay: Toxicity liver stage against HepG2, at 10uM; assay type: cell-based; design: test concentration 10 uM, cell line HepG2-A16-CD81EGFP; conditions: human, HepG2-A16-CD81EGFP cells; read-out: INHIBITION
Write the value in % as a bare number.

COMPOUND STRUCTURE STRING	NUMERIC READOUT
COCc1nc2cc(NCc3ccc(C)o3)ccc2o1	-9.41
CCOC(=O)c1sc(NC(=O)COC)c(C#N)c1C	7.61
O=C(CCC1CCCC1)N1CCC(c2cc3ncccc3c(O)n2)CC1	-4.82
CC(C)c1cc(N2CCC[C@H](N)C2)n2nccc2n1	-5.42
CC(=O)N1CC[C@H]2[C@H](C[C@@H](CN3CCCC3)N2c2nccs2)C1	1.84

Now, please, on to the next molecule.
Cc1ccccc1-c1cncc(C2CCN(S(=O)(=O)N(C)C)CC2)n1 has a reported cytotoxicity at 10 µM of 0.0706
